The compounds below have reported pIC50 for UniProt P21836.
Sequence (P21836 32-614): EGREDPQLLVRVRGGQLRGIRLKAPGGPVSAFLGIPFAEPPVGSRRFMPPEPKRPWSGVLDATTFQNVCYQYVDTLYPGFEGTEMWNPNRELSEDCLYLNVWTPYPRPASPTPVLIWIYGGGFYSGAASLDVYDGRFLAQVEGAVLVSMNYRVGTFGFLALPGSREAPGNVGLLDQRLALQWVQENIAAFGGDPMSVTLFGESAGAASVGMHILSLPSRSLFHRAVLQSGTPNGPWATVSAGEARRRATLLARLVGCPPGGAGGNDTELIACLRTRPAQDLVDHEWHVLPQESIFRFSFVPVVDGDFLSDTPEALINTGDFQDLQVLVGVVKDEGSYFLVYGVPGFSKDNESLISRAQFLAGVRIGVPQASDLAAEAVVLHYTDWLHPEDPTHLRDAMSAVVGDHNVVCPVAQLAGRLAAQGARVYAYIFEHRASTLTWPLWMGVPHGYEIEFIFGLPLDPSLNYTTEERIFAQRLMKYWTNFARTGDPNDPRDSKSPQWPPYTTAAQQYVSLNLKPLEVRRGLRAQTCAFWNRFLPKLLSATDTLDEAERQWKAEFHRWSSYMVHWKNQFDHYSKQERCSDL
pIC50: −log10 of the molar value. Structures can show the parent of a compound that is named as a salt.

compound	pIC50
Cn1cc(C(=O)CCC2CCN(Cc3cccc(Cl)c3)CC2)c2ccccc21 [Compound No. 1-85, hydrochloride]	8.19
Cn1cc(C(=O)CCC2CCN(Cc3cccc(F)c3)CC2)c2cc(F)ccc21 [1-315, oxalate]	8.64
Cn1nc(C(=O)CCC2CCN(Cc3cccc(Cl)c3)CC2)c2ccccc21 [Compound No. 2-99, hydrochloride]	7.50
